Target: Plasma Kallikrein (Homo sapiens (Human), UniProt P03952)
Sequence (P03952 whole entry, looked up): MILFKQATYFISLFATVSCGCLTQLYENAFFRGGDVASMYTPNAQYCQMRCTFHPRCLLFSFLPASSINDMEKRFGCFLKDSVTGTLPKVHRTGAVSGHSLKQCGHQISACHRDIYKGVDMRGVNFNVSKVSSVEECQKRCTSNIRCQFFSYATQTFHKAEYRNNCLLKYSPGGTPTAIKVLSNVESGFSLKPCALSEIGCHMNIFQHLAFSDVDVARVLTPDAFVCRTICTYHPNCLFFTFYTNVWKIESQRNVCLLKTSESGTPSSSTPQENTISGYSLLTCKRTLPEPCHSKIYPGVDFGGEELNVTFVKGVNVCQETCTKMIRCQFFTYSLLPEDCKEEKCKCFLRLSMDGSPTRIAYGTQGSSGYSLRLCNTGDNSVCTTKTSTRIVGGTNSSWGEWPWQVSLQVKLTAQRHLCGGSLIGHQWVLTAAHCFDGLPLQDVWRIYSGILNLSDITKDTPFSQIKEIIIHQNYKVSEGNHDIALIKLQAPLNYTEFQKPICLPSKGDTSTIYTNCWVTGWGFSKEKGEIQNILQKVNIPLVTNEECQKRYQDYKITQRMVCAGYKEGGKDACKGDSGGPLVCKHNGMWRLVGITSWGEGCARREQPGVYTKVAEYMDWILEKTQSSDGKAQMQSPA
Sequence (P03952 whole entry partner, looked up): as the sequence (P03952 whole entry, looked up) above
Assay: biochemical
metric: pKi
Please report pKi as the negative decimal logarithm of the molar concentration, giving only the number.

Q) So what's the measured pKi for this one? C[C@@H]1CCC[C@H](n2cnc(-c3cc(Cl)ccc3-n3cc(Cl)nn3)cc2=O)c2cc(ccn2)-c2nn(-c3cccc(C#N)c3)cc2NC1=O [Example 256]
A) 7.52

* * *

Tested on: human serum proteins
Experiment: Human serum protein binding by equilibrium dialysis
Format: in vitro ADME
Conditions: pH 7.4, dialysis 5 hours at 37° C., read-out: Human protein binding Free fraction
Structures can show the parent of a compound that is named as a salt.
metric: fraction unbound at 5 h, 10 µM
No unit in the answer, only the number.

Q) Suppose we examine the compound C[C@@H]1CCC[C@H](n2cnc(-c3cc(Cl)ccc3-n3cc(Cl)nn3)cc2=O)c2cc(ccn2)-c2c(cnn2C(F)F)NC1=O [Example 353, trifluoroacetate] ; what fraction unbound at 5 h, 10 µM value has been reported?
A) 0.09

* * *

I'd be grateful if you could share measured solubility at 24 h for these entries.
Experiment: physchem
Type: physicochemical
Conditions: aqueous solvent buffered to a specific pH, 20 °C, aqueous buffer, thermodynamic from solid; pH 6.5; solid form (amphor.)
Where a name gives a salt, the structure may show the parent alone.
Report only the number, with the unit µg/mL understood.

Q) Which value of solubility at 24 h has been reported for C[C@@H]1CCC[C@H](n2cnc(-c3cc(Cl)ccc3-n3cc(Cl)nn3)cc2=O)c2ccnc(c2)-c2c(cnn2C)NC1=O [Example 362, trifluoroacetate] in the records?
A) 16

Q) Give its solubility at 24 h value. Item: [2H]C([2H])([2H])n1ncc2c1-c1ccnc(c1)[C@@H](n1cnc(-c3cc(Cl)ccc3-n3cc(C(F)(F)F)nn3)cc1=O)CCC[C@@H](C)C(=O)N2 [Example 368, trifluoroacetate]
A) 82

Q) Fill blank: measured solubility at 24 h of the compound C[C@@H]1CCC[C@H](n2cnc(-c3cc(Cl)ccc3-n3cc(C(F)(F)F)nn3)cc2=O)c2ccnc(c2)-c2c(cnn2C)NC1=O [Example 370, trifluoroacetate] is ____.
A) 106

Q) Return reported solubility at 24 h; argument: C[C@@H]1CCC[C@H](n2cnc(-c3cc(Cl)ccc3-n3cc(C(F)(F)F)nn3)cc2=O)c2cc(ccn2)-c2c(cnn2C)NC1=O [Example 367, trifluoroacetate]
A) 100

Q) For [2H]C([2H])([2H])n1ncc2c1-c1cc(ccn1)[C@@H](n1cnc(-c3cc(Cl)ccc3-n3cc(Cl)nn3)cc1=O)CCC[C@@H](C)C(=O)N2 [Example 363, trifluoroacetate] , what is its reported solubility at 24 h?
A) 159

* * *

metric: pKi
Quick note: pKi means taking -log10 of the concentration in moles per liter.

Q) Item C[C@@H]1CCC[C@H](n2cnc(-c3c(-c4cncs4)ccc(Cl)c3F)cc2=O)c2cc(ccn2)-c2c(cnn2C(F)F)NC1=O with purified human Factor XIa (Homo sapiens (Human), UniProt P03951) - pKi?
A) 8.77

* * *

Target: purified human plasma kallikrein (Homo sapiens (Human), UniProt P03952)
Assay: biochemical
metric: pKi
Please report pKi as the negative decimal logarithm of the molar concentration, giving only the number.

Q) Any idea what pKi came out for C[C@@H]1CCC[C@H](n2cnc(-c3cc(Cl)ccc3-n3cc(C(=O)O)cn3)cc2=O)c2cc(ccn2)-c2c(cnn2C)NC1=O on purified human plasma kallikrein (Homo sapiens (Human), UniProt P03952)?
A) 5.62
